Entry source: patent US6878736B1

# Target Entity: UniProt:Q9JI35
# Sequence (Q9JI35 whole entry): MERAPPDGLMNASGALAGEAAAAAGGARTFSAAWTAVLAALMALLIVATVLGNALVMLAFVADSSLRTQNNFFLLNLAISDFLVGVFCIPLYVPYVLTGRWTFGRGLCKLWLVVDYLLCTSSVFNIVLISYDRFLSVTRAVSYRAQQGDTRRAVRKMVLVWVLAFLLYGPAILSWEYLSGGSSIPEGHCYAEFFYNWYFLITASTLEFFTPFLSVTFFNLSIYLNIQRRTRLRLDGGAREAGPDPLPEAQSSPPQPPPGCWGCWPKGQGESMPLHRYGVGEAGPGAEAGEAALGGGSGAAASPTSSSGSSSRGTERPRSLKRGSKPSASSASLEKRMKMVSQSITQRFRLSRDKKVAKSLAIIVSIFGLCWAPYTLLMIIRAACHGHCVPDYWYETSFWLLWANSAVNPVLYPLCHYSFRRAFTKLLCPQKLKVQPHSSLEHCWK
# Experiment Notes: Histamine H3 radioligand binding assay, guinea pig cortex ([3H]-R-α-methylhistamine)
# Measurement Parameters: guinea pig cortex membranes, competition with 1 nM [3H]-R-α-methylhistamine; read-out: pKi (Guinea pig cortex) (converted)
Where a name gives a salt, the structure may show the parent alone.
Endpoint Label: Ki (nM)

CN1CCC[C@H]1CCNS(=O)(=O)Cc1ccc(Cl)cc1 [Example 97] : 1580
N=C(N)N(CCCCCCN1CCCC1)Cc1ccccc1 [Example 73, bis-hydrochloride] : 1.58
N=C(NCCCN1CCCC1)NCc1ccc(Cl)cc1 [Example 2, bis-hydrochloride] : 50.1
CN1CCC[C@H]1CCCN(C)S(=O)(=O)N(C)Cc1ccc(Cl)cc1 [Example 120] : 501
CCCCNC(=N)NCCCCCN1CCCC1 [Example 65] : 5.01
C[C@@H](c1ccccc1)N(CCCCCN1CCCC1)C(=N)N [Example 75, bis-hydrochloride] : 25.1
CN(Cc1ccccc1)C(=N)NCCCCCN1CCCC1 [Example 50, bis-hydrochloride] : 15.8
N=C(N)NCCCN1CCCC1 [Example 1, bis-hydrochloride] : 63.1
CN1CCC[C@H]1CCCN(CCCc1ccc(Cl)cc1)S(=O)(=O)NCc1ccc(Cl)cc1 [Example 131] : 1000
N=C(NCCCCN1CCCC1)NCCc1ccc(Cl)cc1 [Example 24, bis-hydrochloride] : 6.31

A. CN1CCC[C@H]1CCCNS(=O)(=O)NCC1CCCCC1 [Example 110]
B. O=S(=O)(NCCCCN1CCCC1)NCc1ccc(Cl)cc1 [Example 139]
// task: argmin of Ki over [ A , B ] Your answer should be the label attached to the chosen record.
B
(B: 200 nM, A: 501 nM)

I. CN1CCCC(CCCNS(=O)(=O)c2ccc3ccccc3c2)C1 (stereo not drawn) [Example 92]
II. N=C(NCCc1ccc(Cl)cc1)NCCN1CCCC1 [Example 23, bis-hydrochloride]
Task for the reader: decide whether I or II has the larger Ki. Which one? Tell me its label.
I
(I: 2000 nM, II: 316 nM)
